target.under.test: malate:quinone oxidoreductase (TgMQO) (Toxoplasma gondii, UniProt Q1KSF3)
Construct: lacking the mitochondrial targeting signal (Δ1-37 residues), His-tag purified
Sequence (Q1KSF3 38-549): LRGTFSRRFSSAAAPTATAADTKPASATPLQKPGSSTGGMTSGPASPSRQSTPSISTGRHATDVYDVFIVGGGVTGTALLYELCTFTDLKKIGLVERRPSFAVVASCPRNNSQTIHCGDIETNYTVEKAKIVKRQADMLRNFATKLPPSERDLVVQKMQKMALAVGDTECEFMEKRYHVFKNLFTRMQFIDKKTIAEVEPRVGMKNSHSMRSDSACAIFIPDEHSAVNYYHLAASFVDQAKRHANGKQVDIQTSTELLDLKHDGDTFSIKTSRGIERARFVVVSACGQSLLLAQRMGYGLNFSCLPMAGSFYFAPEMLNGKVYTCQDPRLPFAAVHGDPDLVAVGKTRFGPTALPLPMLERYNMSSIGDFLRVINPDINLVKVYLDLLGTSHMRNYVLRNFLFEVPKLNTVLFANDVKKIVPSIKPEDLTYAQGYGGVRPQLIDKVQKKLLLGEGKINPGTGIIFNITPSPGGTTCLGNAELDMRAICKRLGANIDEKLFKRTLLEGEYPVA
assay.method.text: spectrophotometric dUQ reduction at […] nm, purified recombinant enzyme
pIC50: −log10 of the molar value.

compound.structure.string	pIC50
CC(C)=CCC/C(C)=C/CC/C(C)=C/Cc1c(O)c2ccccc2oc1=O	6.09

Where do the numbers come from? From paper PMC8345934.
